# measured target: M1 (h) (Homo sapiens)
# Construct: expressed in transfected cells; host or cells: CHO cells
# Sequence (P11229 whole entry): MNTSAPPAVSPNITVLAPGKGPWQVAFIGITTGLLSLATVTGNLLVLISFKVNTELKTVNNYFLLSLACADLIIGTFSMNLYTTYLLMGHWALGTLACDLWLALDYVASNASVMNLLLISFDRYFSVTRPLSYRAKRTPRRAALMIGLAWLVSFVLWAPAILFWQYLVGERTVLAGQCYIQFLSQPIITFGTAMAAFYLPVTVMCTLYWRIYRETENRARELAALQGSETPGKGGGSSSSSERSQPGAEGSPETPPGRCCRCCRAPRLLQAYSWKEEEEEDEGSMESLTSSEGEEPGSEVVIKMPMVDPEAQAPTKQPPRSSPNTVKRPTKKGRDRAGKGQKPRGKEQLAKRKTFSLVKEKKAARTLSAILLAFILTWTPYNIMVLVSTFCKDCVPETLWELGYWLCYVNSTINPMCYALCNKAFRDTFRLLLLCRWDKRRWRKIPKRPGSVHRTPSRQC
# test: Radioligand binding M1 (h) (antagonist radioligand), [^3H]pirenzepine, CHO cells
quantity kind: Mean Percent Inhibition of Control Specific Binding (%)
Unit % implied. Number only.

query: Find the recorded Mean Percent Inhibition of Control Specific Binding belonging to "COCc1cc(CCN)c(OC)cc1CC(C)C" and report it.
result: 52.6

query: GET /values?readout=Mean Percent Inhibition of Control Specific Binding&item= "COCc1cc(CCN)c(O)cc1CC(C)C"
result: 4.9

query: Quick check: Mean Percent Inhibition of Control Specific Binding of "COCc1cc(CCN)c(OC)cc1Br" ?
result: 43.4

query: Consider the molecule shown here: COCCc1cc(CCN)c(OC)cc1Br [Compound 2CB-5ME, reference compound] What is its recorded Mean Percent Inhibition of Control Specific Binding?
result: 55.4
